Biological target: LdAI (Leishmania donovani)
Sequence (A0A3Q8IA09 1-398): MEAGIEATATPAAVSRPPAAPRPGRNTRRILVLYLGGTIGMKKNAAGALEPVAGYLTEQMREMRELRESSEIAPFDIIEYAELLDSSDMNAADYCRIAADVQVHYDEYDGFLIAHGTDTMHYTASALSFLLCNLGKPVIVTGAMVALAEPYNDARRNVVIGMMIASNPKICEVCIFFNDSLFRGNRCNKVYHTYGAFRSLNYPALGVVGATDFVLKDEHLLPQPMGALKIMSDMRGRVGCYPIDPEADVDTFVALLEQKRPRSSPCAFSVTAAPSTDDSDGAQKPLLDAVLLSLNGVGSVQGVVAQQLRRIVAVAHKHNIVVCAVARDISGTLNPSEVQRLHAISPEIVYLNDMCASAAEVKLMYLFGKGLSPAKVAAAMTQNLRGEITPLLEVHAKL
Assay: Isothermal titration calorimetry with LdAI
Type: binding
test-readout: Kd (µM)

1 = N[C@@H](CCC(=O)O)C(=O)O [Glu, L-glutamic acid]
2 = N[C@@H](CC(=O)O)C(=O)O [Asp, L-aspartic acid]
query: Of 1 and 2 , which shows the smaller Kd value? In your reply, give the label of the chosen option.
result: 1
